# assayed-system: SP1 (recombinant, purified, Promega) (UniProt P08047 2-785)
# Sequence (P08047 2-785): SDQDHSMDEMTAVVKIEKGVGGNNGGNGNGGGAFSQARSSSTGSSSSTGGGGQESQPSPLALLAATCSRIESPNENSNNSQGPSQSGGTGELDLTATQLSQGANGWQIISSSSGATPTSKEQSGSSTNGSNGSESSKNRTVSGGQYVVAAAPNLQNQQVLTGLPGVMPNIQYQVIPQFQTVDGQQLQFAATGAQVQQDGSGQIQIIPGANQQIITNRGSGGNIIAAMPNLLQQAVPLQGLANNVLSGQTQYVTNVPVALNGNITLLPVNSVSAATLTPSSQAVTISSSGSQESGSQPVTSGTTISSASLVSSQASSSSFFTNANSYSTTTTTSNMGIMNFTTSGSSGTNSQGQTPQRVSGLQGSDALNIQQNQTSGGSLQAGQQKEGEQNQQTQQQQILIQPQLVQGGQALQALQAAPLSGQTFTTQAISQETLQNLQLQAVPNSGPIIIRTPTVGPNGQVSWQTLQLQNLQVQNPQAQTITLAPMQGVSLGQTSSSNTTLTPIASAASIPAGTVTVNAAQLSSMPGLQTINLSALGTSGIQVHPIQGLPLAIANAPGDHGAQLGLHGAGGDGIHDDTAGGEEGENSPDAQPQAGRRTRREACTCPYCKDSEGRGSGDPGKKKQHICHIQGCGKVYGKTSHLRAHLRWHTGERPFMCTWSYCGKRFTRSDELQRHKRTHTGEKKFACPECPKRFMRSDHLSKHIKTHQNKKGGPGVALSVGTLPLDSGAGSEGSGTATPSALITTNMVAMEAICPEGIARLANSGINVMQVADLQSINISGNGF
# experimental-details: EMSA

binder	binding result
Sp1 (-346) unmethylated (Sp1-1) (dsDNA) DNA 1: TCCACCCTCCGCCCCGCGCCGTCC DNA 2: GGACGGCGCGGGGCGGAGGGTGGA	binds
Sp1 (-346) methylated (Sp1-1 M) (dsDNA, 5-methylcytosine (printed mC): strand 1 C10,C15,C17,C20,C24; strand 2 C4,C7,C9,C14) DNA 1: TCCACCCTCCGCCCCGCGCCGTCC DNA 2: GGACGGCGCGGGGCGGAGGGTGGA	no binding
Sp1 (-268) methylated (Sp1-2 M) (dsDNA, 5-methylcytosine (printed mC): strand 1 C5,C11,C16,C21,C24; strand 2 C3,C8,C13,C19) DNA 1: TTCTCGTCCCCGCCCCGTCCCGCC DNA 2: GGCGGGACGGGGCGGGGACGAGAA	no binding
Sp1 (-268) unmethylated (Sp1-2) (dsDNA) DNA 1: TTCTCGTCCCCGCCCCGTCCCGCC DNA 2: GGCGGGACGGGGCGGGGACGAGAA	binds
